System: 997726-040-R-J2-PDC tumor spheroids, viability;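 note: spheroids exposed to compounds for seven days before readout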
procedure_details: Anticancer human tumor 997726-040-R-J2-PDC patient-derived squamous cell lung carcinoma cell line growth inhibition [PI3K]
experimental_context: compound 0.1 µM; stronger effect = lower value; spheroids with HUVEC and MSC

- compound: "CC(C)NCC(C(=O)N1CCN(c2ncnc3c2C(C)CC3O)CC1)c1ccc(Cl)cc1 (stereo not given)"
  tested_system: "997726-040-R-J2-PDC tumor spheroids, viability"
  viability, T/C: "77% [middle of 4 runs]"
- compound: "CCN1CCN(Cc2ccc(Nc3ncc(F)c(-c4cc(F)c5nc(C)n(C(C)C)c5c4)n3)nc2)CC1"
  tested_system: "997726-040-R-J2-PDC tumor spheroids, viability"
  viability, T/C: "64.8% [middle of 4 runs]"
- compound: "CC(=O)c1c(C)c2cnc(Nc3ccc(N4CCNCC4)cn3)nc2n(C2CCCC2)c1=O"
  tested_system: "997726-040-R-J2-PDC tumor spheroids, viability"
  viability, T/C: "62.8% [middle of 4 runs]"
- compound: "CC(C)n1nc(-c2ccc3oc(N)nc3c2)c2c(N)ncnc21"
  tested_system: "997726-040-R-J2-PDC tumor spheroids, viability"
  viability, T/C: "14.7% [middle of 4 runs]"
- compound: "CC(Nc1ccc2c(c1)OCCn1cc(N3C(=O)OCC3C(F)F)nc1-2)C(N)=O (stereo not given)"
  tested_system: "997726-040-R-J2-PDC tumor spheroids, viability"
  viability, T/C: "44.3% [middle of 8 runs]"
